Provenance of the data: ChEMBL document CHEMBL4152381

assayMethodText: Clearance in Wistar-Han rat at 2 mg/kg, iv after 15 mins to 24 hrs by LC/MS/MS analysis
Assay type: ADME, organism-based
settings: in vivo
quantity: clearance (mL/min/kg)
# number only, unit mL/min/kg dropped from output

stdin: Query: clearance; subject: Cc1ccc2nc(N3CCS(=O)(=O)c4ccccc4C3)cc(NCCN)c2c1
stdout: 97

###

assayMethodText: Cytotoxicity against human Hep2 cells assessed as decrease in cell viability after 5 days by CCK8 assay
Format: cell-based
settings: HEp-2 cells
Sorting guide: entries reporting CC50 at 120 h beneath 20 µM go in the Satisfied pile, the rest go in the Not satisfied pile.

Some solved entries appear below for comparison.
NCCCNc1cc(N2CCc3ccccc3C2)nc2ccccc12 :: Satisfied
NCCCCNc1cc(N2CCc3ccccc3C2)nc2ccccc12 :: Satisfied
Cc1ccc2nc(N3CCNc4ccccc4C3)cc(NCCN)c2c1 :: Satisfied
Cc1ccc2nc(N3CCS(=O)(=O)c4ccccc4C3)cc(NCCCN)c2c1 :: Not satisfied
Cc1ccc2nc(N3CCS(=O)(=O)c4ccccc4C3)cc(NCCCCCN)c2c1 :: Not satisfied

stdin: Say whether its CC50 at 120 h is strictly beneath 20 µM. Entry: NCCNc1cc(N2CCc3ccccc3C2)nc2ccccc12
stdout: Satisfied

stdin: # check: CC50 at 120 h < 20 µM for NCCNc1cc(N2CCCc3ccccc3C2)nc2cccc(Cl)c12
stdout: Not satisfied

stdin: Confirm or reject: CC50 at 120 h of Cc1ccc2nc(N3CCS(=O)(=O)c4ccccc4C3)cc(NCCN)c2c1 lies strictly below 20 µM
stdout: Not satisfied

stdin: Confirm or reject: CC50 at 120 h of Cc1ccc2nc(N3CCCc4ccccc4C3)cc(NCCN)c2c1 lies strictly below 20 µM
stdout: Satisfied

stdin: Is CC50 at 120 h strictly under 20 µM for the entry Cc1ccc2nc(N3CC(=O)Nc4ccccc4C3)cc(NCCN)c2c1 ?
stdout: Not satisfied

stdin: Is CC50 at 120 h strictly under 20 µM for the entry COc1ccc2nc(N3CCCc4ccccc4C3)cc(NCCN)c2c1 ?
stdout: Satisfied

stdin: Report whether reported CC50 at 120 h is lower than 20 µM (strictly) for Cc1ccc2nc(N3CCS(=O)(=O)c4ccccc4C3)cc(NCCCCN)c2c1
stdout: Not satisfied

stdin: Hello, I'm reviewing records and need to know if CC50 at 120 h of NC(=O)NCCNc1cc(N2CCc3ccccc3C2)nc2ccccc12 is below 20 µM. Could you check?
stdout: Not satisfied

###

// values below are reported bioavailability
assayMethodText: Oral bioavailability in Wistar-Han rat at 10 mg/kg after 15 mins to 24 hrs by LC/MS/MS analysis
Type: ADME, organism-based
settings: in vivo
Value expressed in %; do not type the unit.

NCCNc1cc(N2CCCc3ccccc3C2)nc2ccccc12 :: 32

Field: next compound
stdin: So what's the measured bioavailability for this one? Cc1ccc2nc(N3CCS(=O)(=O)c4ccccc4C3)cc(NCCN)c2c1
stdout: 0

###

assayMethodText: Volume of distribution at steady state in Wistar-Han rat at 2 mg/kg, iv after 15 mins to 24 hrs by LC/MS/MS analysis
Type: ADME, organism-based
settings: in vivo, read-out: Vdss
quantity: Vd (L/kg)
Entry rule: numbers only, all in L/kg.

stdin: What Vd value was documented for this molecule, Cc1ccc2nc(N3CCS(=O)(=O)c4ccccc4C3)cc(NCCN)c2c1 ?
stdout: 17
